- Tested on: Mus musculus
- Assay Comment: Inhibition of LPS-induced TNFalpha production in mouse at 10 mg/kg after 1 hr
- Assay type: functional
Observed Property: inhibition in vivo at 10 mg/kg (%)

>>> endpoint_result("Cc1ccc(-n2nc(C(C)(C)C)cc2NC(=O)Nc2ccc(OCCN3CCOCC3)c3ccccc23)cc1")
63
>>> endpoint_result("Cc1ccc(-n2nc(C(C)(C)C)cc2NC(=O)Nc2ccc(-c3ccc(CN4CCOCC4)nc3)c3ccccc23)cc1")
74
>>> endpoint_result("Cc1ccc(-n2nc(C(C)(C)C)cc2NC(=O)Nc2ccc(-c3ccc(CN4CCOCC4)nc3)c3ccccc23)cn1")
86
>>> endpoint_result("Cc1ncc(-n2nc(C(C)(C)C)cc2NC(=O)Nc2ccc(-c3ccc(CN4CCOCC4)nc3)c3ccccc23)cn1")
95

---

- Test system: Blood
- Assay Comment: Inhibition of LPS-induced TNFalpha production in human whole blood
- Format: functional, tissue-based
pIC50: −log10 of the molar value.
A collection of compounds and their measured pIC50
Observed Property: pIC50

>>> endpoint_result("Cc1ccc(-n2nc(C(C)(C)C)cc2NC(=O)Nc2ccc(-c3ccc(CN4CCOCC4)nc3)c3ccccc23)cc1")
6.64
>>> endpoint_result("Cn1cc(-n2nc(C(C)(C)C)cc2NC(=O)Nc2ccc(-c3ccc(CN4CCOCC4)nc3)c3ccccc23)cn1")
7.05
>>> endpoint_result("Cc1ccc(-n2nc(C(C)(C)C)cc2NC(=O)Nc2ccc(-c3ccc(CN4CCOCC4)o3)c3ccccc23)cc1")
5.19
>>> endpoint_result("Cc1ccc(-n2nc(C(C)(C)C)cc2NC(=O)Nc2ccc(-c3ccc(CN(C)C)cc3)c3ccccc23)cc1")
5.04
>>> endpoint_result("Cc1ncc(-n2nc(C(C)(C)C)cc2NC(=O)Nc2ccc(-c3ccc(CN4CCOCC4)nc3)c3ccccc23)cn1")
6.80

---

- Test system: Blood
- Assay Comment: Inhibition of LPS-induced TNFalpha production in human whole blood
- Format: functional, tissue-based
A collection of compounds and their measured log10 of IC50
Observed Property: log10 of IC50 (log10 of the value in µM)

>>> endpoint_result("Cn1nc(C(C)(C)C)cc1NC(=O)Nc1ccc(-c2ccc(CN3CCOCC3)nc2)c2ccccc12")
-0.02
>>> endpoint_result("Cc1ccc(-n2nc(C(C)(C)C)cc2NC(=O)Nc2ccc(-c3ccc(CCN4CCOCC4)cc3)c3ccccc23)cc1")
0.23
>>> endpoint_result("Cc1ccc(-n2nc(C(C)(C)C)cc2NC(=O)Nc2ccc(-c3ccc(CN4CCOCC4)nc3)c3ccccc23)cn1")
-0.70
>>> endpoint_result("Cc1ccc(-n2nc(C(C)(C)C)cc2NC(=O)Nc2ccc(-c3ccc(CN4CCOCC4)cc3)c3ccccc23)cc1")
0.04
>>> endpoint_result("Cc1ccc(-n2nc(C(C)(C)C)cc2NC(=O)Nc2ccc(-c3cccc(CN4CCOCC4)c3)c3ccccc23)cc1")
0.59
>>> endpoint_result("Cc1ccc(-n2nc(C(C)(C)C)cc2NC(=O)Nc2ccc(-c3ccc(CN4CCOCC4)cn3)c3ccccc23)cc1")
-0.23
>>> endpoint_result("Cc1ccc(-n2nc(C(C)(C)C)cc2NC(=O)Nc2ccc(-c3ccc(CN4CCN(C)CC4)cc3)c3ccccc23)cc1")
0.56

---

- Target Under Test: Proto-oncogene tyrosine-protein kinase Src (Homo sapiens, UniProt P12931)
- Sequence (P12931 2-536 limits assumed): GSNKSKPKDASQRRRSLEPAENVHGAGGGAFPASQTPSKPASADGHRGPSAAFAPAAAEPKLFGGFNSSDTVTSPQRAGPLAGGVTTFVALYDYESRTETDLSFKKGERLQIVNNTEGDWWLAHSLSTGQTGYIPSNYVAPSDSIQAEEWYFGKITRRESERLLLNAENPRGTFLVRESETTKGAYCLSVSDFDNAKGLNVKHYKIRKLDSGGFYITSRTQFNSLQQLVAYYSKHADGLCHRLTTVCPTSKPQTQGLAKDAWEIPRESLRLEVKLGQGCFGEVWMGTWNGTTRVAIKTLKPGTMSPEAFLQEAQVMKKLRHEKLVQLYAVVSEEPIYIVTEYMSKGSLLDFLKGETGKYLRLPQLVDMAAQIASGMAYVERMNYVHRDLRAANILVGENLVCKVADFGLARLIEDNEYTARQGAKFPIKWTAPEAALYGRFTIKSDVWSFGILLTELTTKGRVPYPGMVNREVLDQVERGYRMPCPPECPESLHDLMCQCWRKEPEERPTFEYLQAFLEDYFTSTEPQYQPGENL
Observed Property: IC50 (nM)

>>> endpoint_result("Cc1ccc(-n2nc(C(C)(C)C)cc2NC(=O)Nc2ccc(-c3ccc(CN4CCOCC4)nc3)c3ccccc23)cc1")
1000

---

- Assay Comment: Lipophilicity, log D at pH 7.4
- Type: physicochemical
- Condition Notes: buffer
Observed Property: logD

>>> endpoint_result("Cc1ccc(-n2nc(C(C)(C)C)cc2NC(=O)Nc2ccc(-c3ccc(CN4CCOCC4)cn3)c3ccccc23)cc1")
5.2
>>> endpoint_result("Cc1ccc(-n2nc(C(C)(C)C)cc2NC(=O)Nc2ccc(-c3ccc(CN4CCOCC4)nc3)c3ccccc23)cc1")
5.2
>>> endpoint_result("Cc1ccc(-n2nc(C(C)(C)C)cc2NC(=O)Nc2ccc(OCCN3CCOCC3)c3ccccc23)cc1 [DORAMAPIMOD]")
4.3

---

- Target Under Test: Mitogen-activated protein kinase 9 (Homo sapiens, UniProt P45984)
- Sequence (P45984 whole entry): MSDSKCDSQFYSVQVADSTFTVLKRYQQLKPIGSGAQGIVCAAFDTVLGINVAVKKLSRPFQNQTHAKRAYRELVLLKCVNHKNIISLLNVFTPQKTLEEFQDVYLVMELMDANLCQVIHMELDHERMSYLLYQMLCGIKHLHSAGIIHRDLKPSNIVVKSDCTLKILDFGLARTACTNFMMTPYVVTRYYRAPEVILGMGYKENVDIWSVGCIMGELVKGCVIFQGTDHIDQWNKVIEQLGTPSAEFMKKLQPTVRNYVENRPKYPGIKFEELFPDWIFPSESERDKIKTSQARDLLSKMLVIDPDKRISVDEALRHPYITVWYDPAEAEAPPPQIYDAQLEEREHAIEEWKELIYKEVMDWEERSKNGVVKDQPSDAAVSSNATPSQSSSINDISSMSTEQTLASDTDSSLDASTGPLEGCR
- Assay Comment: Inhibition of Jnk2
pIC50: −log10 of the molar value.
Observed Property: pIC50

>>> endpoint_result("Cc1ccc(-n2nc(C(C)(C)C)cc2NC(=O)Nc2ccc(-c3ccc(CN4CCOCC4)nc3)c3ccccc23)cc1")
8.70

---

A collection of molecules and their measured IC50
- System: THP-1
- Assay Comment: Inhibition of LPS-induced TNFalpha production in THP1 cells
- Format: functional, cell-based
- Condition Notes: Homo sapiens
Observed Property: IC50

>>> endpoint_result("Cc1ccc(-n2nc(C(C)(C)C)cc2NC(=O)Nc2ccc(-c3cccc(N4CCOCC4)c3)c3ccccc23)cc1")
"1350 nM"
>>> endpoint_result("Cc1ccc(-n2nc(C(C)(C)C)cc2NC(=O)Nc2ccc(-c3ccc(N4CCOCC4)cc3)c3ccccc23)cc1")
"470 nM"
>>> endpoint_result("Cc1ccc(-n2nc(C(C)(C)C)cc2NC(=O)Nc2ccc(-c3ccccc3)c3ccccc23)cc1")
"1430 nM"
>>> endpoint_result("Cc1ccc(-n2nc(C(C)(C)C)cc2NC(=O)Nc2ccc(-c3ccc(CN4CCOCC4)nc3)c3ccccc23)cn1")
"11 nM"
>>> endpoint_result("Cn1nc(C(C)(C)C)cc1NC(=O)Nc1ccc(-c2ccc(CN3CCOCC3)nc2)c2ccccc12")
"32 nM"
>>> endpoint_result("Cc1ccc(-n2nc(C(C)(C)C)cc2NC(=O)Nc2ccc(-c3cccc(CN4CCOCC4)c3)c3ccccc23)cc1")
"56 nM"
>>> endpoint_result("Cc1ccc(-n2nc(C(C)(C)C)cc2NC(=O)Nc2ccc(-c3ccc(CCN4CCOCC4)cc3)c3ccccc23)cc1")
"56 nM"
>>> endpoint_result("Cc1ccc(-n2nc(C(C)(C)C)cc2NC(=O)Nc2ccc(-c3ccc(CN4CCN(C)CC4)cc3)c3ccccc23)cc1")
"46 nM"
>>> endpoint_result("Cc1ccc(-n2nc(C(C)(C)C)cc2NC(=O)Nc2ccc(-c3ccco3)c3ccccc23)cc1")
"390 nM"
>>> endpoint_result("Cc1ccc(-n2nc(C(C)(C)C)cc2NC(=O)Nc2ccc(-c3ccc(CN4CCOCC4)cn3)c3ccccc23)cc1")
"26 nM"
>>> endpoint_result("Cn1cc(-n2nc(C(C)(C)C)cc2NC(=O)Nc2ccc(-c3ccc(CN4CCOCC4)nc3)c3ccccc23)cn1")
"11 nM"
>>> endpoint_result("Cc1ccc(-n2nc(C(C)(C)C)cc2NC(=O)Nc2ccc(-c3ccc(CN4CCOCC4)cc3)c3ccccc23)cc1")
"36 nM"
>>> endpoint_result("Cc1ncc(-n2nc(C(C)(C)C)cc2NC(=O)Nc2ccc(-c3ccc(CN4CCOCC4)nc3)c3ccccc23)cn1")
"14 nM"
>>> endpoint_result("Cc1ccc(-n2nc(C(C)(C)C)cc2NC(=O)Nc2ccc(-c3ccc(CN(C)C)cc3)c3ccccc23)cc1")
"104 nM"
>>> endpoint_result("Cc1ccc(-n2nc(C(C)(C)C)cc2NC(=O)Nc2ccc(-c3ccc(CN4CCOCC4)o3)c3ccccc23)cc1")
"70 nM"
>>> endpoint_result("Cc1ccc(-n2nc(C(C)(C)C)cc2NC(=O)Nc2cccc3ccccc23)cc1")
"320 nM"
>>> endpoint_result("Cc1ccc(-n2nc(C(C)(C)C)cc2NC(=O)Nc2ccc(-c3ccc(CN4CCOCC4)nc3)c3ccccc23)cc1")
"9 nM"

---

- System: Blood
- Assay Comment: Inhibition of LPS-induced TNFalpha production in human whole blood
- Assay type: functional, tissue-based
A collection of compounds and their measured IC50
Observed Property: IC50

>>> endpoint_result("Cc1ccc(-n2nc(C(C)(C)C)cc2NC(=O)Nc2ccc(-c3ccccc3)c3ccccc23)cc1")
"> 15 µM"
>>> endpoint_result("Cc1ccc(-n2nc(C(C)(C)C)cc2NC(=O)Nc2ccc(-c3ccc(N4CCOCC4)cc3)c3ccccc23)cc1")
"> 15 µM"
>>> endpoint_result("Cc1ccc(-n2nc(C(C)(C)C)cc2NC(=O)Nc2cccc3ccccc23)cc1")
"> 15 µM"
